Target: TRPML1 (Homo sapiens, UniProt Q9GZU1)
Sequence (Q9GZU1 whole entry): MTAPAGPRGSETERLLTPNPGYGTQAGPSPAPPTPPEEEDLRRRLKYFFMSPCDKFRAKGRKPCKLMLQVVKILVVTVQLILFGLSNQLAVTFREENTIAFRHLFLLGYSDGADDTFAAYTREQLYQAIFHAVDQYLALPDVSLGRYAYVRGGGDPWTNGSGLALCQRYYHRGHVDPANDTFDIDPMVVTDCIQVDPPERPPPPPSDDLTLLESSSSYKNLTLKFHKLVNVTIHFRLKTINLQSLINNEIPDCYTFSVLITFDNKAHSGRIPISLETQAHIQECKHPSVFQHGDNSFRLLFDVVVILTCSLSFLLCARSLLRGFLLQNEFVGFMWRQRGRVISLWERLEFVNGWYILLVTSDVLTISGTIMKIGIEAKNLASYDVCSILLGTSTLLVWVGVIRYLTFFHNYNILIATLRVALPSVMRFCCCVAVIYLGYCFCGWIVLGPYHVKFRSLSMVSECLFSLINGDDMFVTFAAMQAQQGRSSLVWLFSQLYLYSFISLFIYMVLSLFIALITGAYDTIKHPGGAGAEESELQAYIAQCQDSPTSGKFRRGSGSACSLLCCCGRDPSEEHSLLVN
Assay: Cellular TRPML1 assay (FLIPR TETRA, GCaMP6f calcium read-out)
Settings: HEK T-REx/GCaMP6f/TRPML1 cells; Ca2+ response over 300 s, normalized to ML-SA1 50 μM; Ca2+ free or Optimem condition not given; read-out: Ec50 (Activity of TRPML1 agonists)
Measured attribute: pEC50
Please keep in mind that pEC50 is minus log10 of the molar concentration; only the number is needed.

# get_value(readout= pEC50, system= TRPML1 (Homo sapiens, UniProt Q9GZU1)) for CCCOC1CCN(c2ccccc2NS(=O)(=O)c2ccc(S(=O)(=O)N(C)C)cc2)CC1 [Example 45] 5.72

Give recorded pEC50 with TRPML1 (Homo sapiens, UniProt Q9GZU1) for the following compound: Cc1ccccc1S(=O)(=O)Nc1ccccc1N1CCN(C(=O)OC(C)(C)C)CC1 [Example 47] 5.28

What measured pEC50 is associated with CN(C)S(=O)(=O)c1ccc(S(=O)(=O)Nc2ccccc2N2CCOCC2)cc1 [Example 27] on TRPML1 (Homo sapiens, UniProt Q9GZU1)? 4.88

Could you share what pEC50 was measured for CC(C)N(C(=O)c1ccc(S(C)(=O)=O)cc1)c1ccccc1N1CCC(Oc2cnccn2)CC1 [Example 103] , tested on TRPML1 (Homo sapiens, UniProt Q9GZU1)? 4.83

----------
Target: TRPML1 (Homo sapiens, UniProt Q9GZU1)
Experiment: Cellular TRPML1 assay (FLIPR TETRA, GCaMP6f calcium read-out)
Conditions: HEK T-REx/GCaMP6f/TRPML1 cells; Ca2+ response over 300 s, normalized to ML-SA1 50 μM; Ca2+ free or Optimem condition not given; read-out: Ec50 (Activity of TRPML1 agonists)
Would you mind telling me the reported pEC50 of each entry?
# pEC50 = -log10(concentration in molar units)

Could you share which pEC50 value was measured for CN(C)S(=O)(=O)c1ccc(S(=O)(=O)Nc2ccccc2N2CCN(C(=O)OC(C)(C)C)CC2)cc1 ? 5.68

Field request: pEC50 | item: CN(C)S(=O)(=O)c1ccc(S(=O)(=O)NC2CCCCC2N2CCC(Oc3ccccc3)CC2)cc1 (single isomer, unassigned) [Example 62] 4.80

Fill blank: measured pEC50 of the molecule COC1CCCN(c2ccccc2NS(=O)(=O)c2ccc(S(=O)(=O)N(C)C)cc2)C1 (stereo not shown) is ____. 5.14

Quick check: pEC50 of Cc1ccc(S(=O)(=O)Nc2ccccc2N2CCN(C(=O)OC(C)(C)C)CC2)cc1 ? 5.74

Item CCCOC1CCN(c2ccccc2NS(=O)(=O)c2cc(C)oc2C)CC1 has what recorded pEC50? 4.42

Quick one: pEC50 for Cc1cc(S(=O)(=O)Nc2ccccc2N2CCN(C(=O)OC(C)(C)C)CC2)c(C)o1 ? 5.64

Which measured pEC50 value corresponds to Cc1cncc(S(=O)(=O)Nc2ccccc2N2CCN(C(=O)OC(C)(C)C)CC2)c1 ? 5.14

Param item = CC1Cc2cc(S(=O)(=O)Nc3ccccc3N3CCN(C(=O)OC(C)(C)C)CC3)ccc2O1 (single isomer, unassigned) [Example 93] ; retrieve measured pEC50. 5.31

Could you tell me which pEC50 is on file for CN(C)S(=O)(=O)c1ccc(S(=O)(=O)Nc2ccccc2N2CCOC(c3ccccc3)C2)cc1 (stereo not shown) ? 5.17

Item CN(C)S(=O)(=O)c1ccc(S(=O)(=O)Nc2ccccc2N2CCC(c3ccccc3)CC2)cc1 has what recorded pEC50? 5.55

Please give the measured pEC50 for this molecule: CC(C)N(C(=O)c1ccc(S(C)(=O)=O)cc1)c1ccccc1N1CCN(C(=O)OC(C)(C)C)CC1 5.14

If you can, please state the reported pEC50 value of COc1ccc(S(=O)(=O)Nc2ccccc2N2CCN(C(=O)OC(C)(C)C)CC2)cc1 . 5.38

Consider the molecule shown here: CCOC(=O)N1CCN(c2ccccc2NS(=O)(=O)c2ccc(S(=O)(=O)N(C)C)cc2)CC1 What is its recorded pEC50? 5.49

Quick one: pEC50 of CC(C)c1ccc(S(=O)(=O)Nc2ccccc2N2CCC(C(=O)OC(C)(C)C)CC2)cc1 ? 5.64

// pEC50 lookup, key: CC(C)Oc1ccc(S(=O)(=O)Nc2ccccc2N2CCC(C(=O)OC(C)(C)C)CC2)cc1 5.22

Which pEC50 value belongs to CN(C)S(=O)(=O)c1ccc(S(=O)(=O)Nc2ccccc2N2CCC(Oc3ccncc3)CC2)cc1 ? 5.07

Values were extracted from patent US20230010299A1.
